Origin of measurements: ChEMBL document CHEMBL2346581

Listed next: entries and their corresponding pKi.
tested.target: Peptidyl-prolyl cis-trans isomerase FKBP5 (Homo sapiens)
Sequence (Q13451 whole entry): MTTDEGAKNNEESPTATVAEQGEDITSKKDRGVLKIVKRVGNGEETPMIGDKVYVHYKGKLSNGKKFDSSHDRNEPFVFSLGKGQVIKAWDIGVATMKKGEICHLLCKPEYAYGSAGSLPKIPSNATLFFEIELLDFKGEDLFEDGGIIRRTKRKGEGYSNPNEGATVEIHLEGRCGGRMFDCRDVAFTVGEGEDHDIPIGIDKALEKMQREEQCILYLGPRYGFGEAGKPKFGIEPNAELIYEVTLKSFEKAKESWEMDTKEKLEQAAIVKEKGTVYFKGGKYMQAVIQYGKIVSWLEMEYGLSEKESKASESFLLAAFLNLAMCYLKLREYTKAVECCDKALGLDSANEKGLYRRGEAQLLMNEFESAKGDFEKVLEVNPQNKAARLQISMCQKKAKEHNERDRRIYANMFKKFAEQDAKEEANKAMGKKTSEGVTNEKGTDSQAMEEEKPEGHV
pKi: −log10 of the molar value.
result.type: pKi

| compound | meas.value |
| --- | --- |
| CCN1CC2CCCC(C1=O)N2C(=O)C(=O)c1cc(OC)c(OC)c(OC)c1 (stereo not drawn) | < 4.00 |
| COc1cc2c(c(OC)c1)[C@]1(C)C3CCC[C@@H](C(=O)N1CC2)N3S(=O)(=O)c1cc(Cl)cc(Cl)c1 | < 4.00 |
| COc1ccc(OCCOC(=O)C2CCCCN2S(=O)(=O)c2ccc3ncsc3c2)cc1OC (stereo not drawn) | < 4.00 |
